- Test system: 422866-222-R5-J1-PDC complex spheroids viability
- test_name: Anticancer human tumor 422866-222-R5-J1-PDC patient-derived pancreatic adenocarcinoma cell line growth inhibition [RAS]; active means viability on the fitted dose curve at most 10% of control; inactive means the rest
- conditions: second compound 1 µM; first compound 10 µM
- Text: RAS pathway inhibitors in Combinations in Complex Spheroids A high-throughput screen of multi-cell type tumor spheroids was designed to identify active combinations of RAS pathway inhibitors and targeted small molecules. Complex spheroids include a stromal component modeled by human endothelial cells (HUVEC) and fibroblasts modeled by human mesenchymal stem cells (MSCs). […] Compounds. […] If the clinical Cmax for an agent had not been determined, the highest concentration tested was 10 microM. […]
Outcome (select one): true (1) (active), false (0) (inactive)

Before answering, review these 3 worked examples.
CC(=O)OC12COC1CC(O)C1(C)C(=O)C(O)C3=C(C)C(OC(=O)C(O)C(NC(=O)OC(C)(C)C)c4ccccc4)CC(O)(C(OC(=O)c4ccccc4)C21)C3(C)C (centres undefined) + C#Cc1c(F)ccc2cc(O)cc(-c3ncc4c(N5CC6CCC(C5)N6)nc(OCC56CCCN5CC(F)C6)nc4c3F)c12 : false (0)
Cc1nc(N2CCC3(CC2)COC(C)C3N)c(CO)nc1Sc1ccnc(N)c1Cl (centres undefined) + C#Cc1c(F)ccc2cc(O)cc(-c3ncc4c(N5CC6CCC(C5)N6)nc(OCC56CCCN5CC(F)C6)nc4c3F)c12 : false (0)
CC(Nc1ccc2c(c1)OCCn1cc(N3C(=O)OCC3C(F)F)nc1-2)C(N)=O (centres undefined) + C=CC(=O)N1CCN(c2nc(OCC3CCCN3C)nc3c(F)c(-c4nc(N)cc(C)c4C(F)(F)F)c(Cl)cc23)C(C)C1 : true (1)

Please examine the following record next.
Look up the recorded call for C[C@@H](NC(=O)c1ncnc(N)c1Cl)c1ncc(C(=O)Nc2cc(C(F)(F)F)c(Cl)cn2)s1 + C=CC(=O)N1CCN(c2nc(OCC3CCCN3C)nc3c(F)c(-c4nc(N)cc(C)c4C(F)(F)F)c(Cl)cc23)C(C)C1 in this test. false (0)

---

- Tested on: 422866-222-R5-J1-PDC complex spheroids viability
- test_name: Anticancer human tumor 422866-222-R5-J1-PDC cell line growth inhibition [RAS];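 further: spheroids exposed to compounds for 7 days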;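 on viability, T/C: 100% = DMSO vehicle control viability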
- conditions: second compound 1 µM; first compound 10 µM; stronger effect = lower value
metric_name: viability, T/C (%)
Give just the numeric value; % need not be written.

Looking up CCC(CC)c1cc(NC2CCC(N)C2)n2nccc2n1 (stereo not drawn) + C=CC(=O)N1CCN(c2nc(OCC3CCCN3C)nc3c(F)c(-c4nc(N)cc(C)c4C(F)(F)F)c(Cl)cc23)C(C)C1 , I see its viability, T/C listed as 41.1

// field: viability, T/C; key: CC(Nc1ccc2c(c1)OCCn1cc(N3C(=O)OCC3C(F)F)nc1-2)C(N)=O (stereo not drawn) + C#Cc1c(F)ccc2cc(O)cc(-c3ncc4c(N5CC6CCC(C5)N6)nc(OCC56CCCN5CC(F)C6)nc4c3F)c12 ; value = 12.7

So for NC1c2ccccc2OC12CCN(c1cnc3c(N4CCCc5ncccc54)n[nH]c3n1)CC2 (stereo not drawn) + C#Cc1c(F)ccc2cc(O)cc(-c3ncc4c(N5CC6CCC(C5)N6)nc(OCC56CCCN5CC(F)C6)nc4c3F)c12 , the logged viability, T/C turned out to be 15

---

- Tested on: 422866-222-R5-J1-PDC complex spheroids viability
- test_name: Anticancer human tumor 422866-222-R5-J1-PDC cell line growth inhibition [RAS];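 further: spheroids exposed to compounds for 7 days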
- conditions: curve of first compound; second compound 0.316 µM
pIC50: −log10 of the molar value.
metric_name: pIC50

Some molecules with recorded pIC50:
O=C(c1ccc(F)c(F)c1Nc1ccc(I)cc1F)N1CC(O)([C@@H]2CCCCN2)C1 + C=CC(=O)N1CCN(c2nc(OCC3CCCN3C)nc3c(F)c(-c4nc(N)cc(C)c4C(F)(F)F)c(Cl)cc23)C(C)C1 : > 8.50
Cc1nc(N2CCC3(CC2)COC(C)C3N)c(CO)nc1Sc1ccnc(N)c1Cl (centres undefined) + C#Cc1c(F)ccc2cc(O)cc(-c3ncc4c(N5CC6CCC(C5)N6)nc(OCC56CCCN5CC(F)C6)nc4c3F)c12 : 7.21
CCc1c2c(nc3ccc(O)cc13)-c1cc3c(c(=O)n1C2)COC(=O)[C@]3(O)CC + C=CC(=O)N1CCN(c2nc(OCC3CCCN3C)nc3c(F)c(-c4nc(N)cc(C)c4C(F)(F)F)c(Cl)cc23)C(C)C1 : > 9.02

Looking up C=CC(=O)Nc1cc(Nc2nccc(-c3cn(C)c4ccccc34)n2)c(OC)cc1N(C)CCN(C)C + C#Cc1c(F)ccc2cc(O)cc(-c3ncc4c(N5CC6CCC(C5)N6)nc(OCC56CCCN5CC(F)C6)nc4c3F)c12 , I found its pIC50 recorded as 7.03

Form field pIC50, entry C=CC(=O)Nc1cc(Nc2nccc(-c3cn(C)c4ccccc34)n2)c(OC)cc1N(C)CCN(C)C + C=CC(=O)N1CCN(c2nc(OCC3CCCN3C)nc3c(F)c(-c4nc(N)cc(C)c4C(F)(F)F)c(Cl)cc23)C(C)C1 : > 8.50

For record CC(=O)OC12COC1CC(O)C1(C)C(=O)C(O)C3=C(C)C(OC(=O)C(O)C(NC(=O)OC(C)(C)C)c4ccccc4)CC(O)(C(OC(=O)c4ccccc4)C21)C3(C)C (centres undefined) + C#Cc1c(F)ccc2cc(O)cc(-c3ncc4c(N5CC6CCC(C5)N6)nc(OCC56CCCN5CC(F)C6)nc4c3F)c12 the listed pIC50 is 7.50

Entry CC1(O)CCCC1n1c(=O)c(C(F)F)cc2cnc(NC3CCN(S(C)(=O)=O)CC3)nc21 (centres undefined) + C#Cc1c(F)ccc2cc(O)cc(-c3ncc4c(N5CC6CCC(C5)N6)nc(OCC56CCCN5CC(F)C6)nc4c3F)c12 , pIC50 reported as < 5.00

Measured pIC50, NC1c2ccccc2OC12CCN(c1cnc3c(N4CCCc5ncccc54)n[nH]c3n1)CC2 (centres undefined) + C=CC(=O)N1CCN(c2nc(OCC3CCCN3C)nc3c(F)c(-c4nc(N)cc(C)c4C(F)(F)F)c(Cl)cc23)C(C)C1 : > 7.50

pIC50 in this record for CC(C)n1nc(-c2ccc3oc(N)nc3c2)c2c(N)ncnc21 + C#Cc1c(F)ccc2cc(O)cc(-c3ncc4c(N5CC6CCC(C5)N6)nc(OCC56CCCN5CC(F)C6)nc4c3F)c12 : < 7.00
